Catalogue of self-splicing fitness (ln) values
experiment: self-splicing fitness, log relative to wild type (ln ratio); higher = more splicing; Tetrahymena group I intron in knt gene, E. coli kanamycin selection, DiMSum; sequences stand for … in CUCUCU…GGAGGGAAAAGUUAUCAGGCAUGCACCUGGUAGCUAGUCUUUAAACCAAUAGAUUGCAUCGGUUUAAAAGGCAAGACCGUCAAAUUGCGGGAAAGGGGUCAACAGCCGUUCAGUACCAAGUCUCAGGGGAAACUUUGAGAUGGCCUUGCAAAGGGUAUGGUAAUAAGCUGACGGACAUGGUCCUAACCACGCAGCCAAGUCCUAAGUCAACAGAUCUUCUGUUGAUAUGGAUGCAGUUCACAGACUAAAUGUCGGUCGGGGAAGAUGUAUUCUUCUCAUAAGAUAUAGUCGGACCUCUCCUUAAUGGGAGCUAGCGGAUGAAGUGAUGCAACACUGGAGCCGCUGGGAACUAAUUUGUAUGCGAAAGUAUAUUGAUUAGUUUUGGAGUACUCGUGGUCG; conditions: 37 °C;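 also: selection with 25 µg/mL kanamycin versus none on LB agar overnight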
Format: numeric value only, no unit, no commentary.

For orientation, consider the following solved cases.
>  <PRIMARY SEQUENCE>
CCAAAGCAAUAUUACGUUCG

>  <MEASURED ATTRIBUTE>
self-splicing fitness (ln)

>  <DATA VALUE>
0.165

$$$$
>  <PRIMARY SEQUENCE>
UUAAAGCAAUAUUACGUUUG

>  <MEASURED ATTRIBUTE>
self-splicing fitness (ln)

>  <DATA VALUE>
-0.699

$$$$
>  <PRIMARY SEQUENCE>
GUACAGCAAUAUUACGCGUG

>  <MEASURED ATTRIBUTE>
self-splicing fitness (ln)

>  <DATA VALUE>
-1.42

$$$$
>  <PRIMARY SEQUENCE>
CGAAAGCAAUAUUACGCCAU

>  <MEASURED ATTRIBUTE>
self-splicing fitness (ln)

>  <DATA VALUE>
-2.78

$$$$
>  <PRIMARY SEQUENCE>
GCCGAGCAAUAUUACGGUUA

>  <MEASURED ATTRIBUTE>
self-splicing fitness (ln)

>  <DATA VALUE>
-0.0707

$$$$

# next sequence below
Quickly give me recorded self-splicing fitness (ln) for `CUGCAGCAAUAUUACGCGGC`
-2.63

====

assay: self-splicing fitness, log relative to wild type (ln ratio); higher = more splicing; Tetrahymena group I intron in knt gene, E. coli kanamycin selection, DiMSum; sequences stand for … in CUCUCU…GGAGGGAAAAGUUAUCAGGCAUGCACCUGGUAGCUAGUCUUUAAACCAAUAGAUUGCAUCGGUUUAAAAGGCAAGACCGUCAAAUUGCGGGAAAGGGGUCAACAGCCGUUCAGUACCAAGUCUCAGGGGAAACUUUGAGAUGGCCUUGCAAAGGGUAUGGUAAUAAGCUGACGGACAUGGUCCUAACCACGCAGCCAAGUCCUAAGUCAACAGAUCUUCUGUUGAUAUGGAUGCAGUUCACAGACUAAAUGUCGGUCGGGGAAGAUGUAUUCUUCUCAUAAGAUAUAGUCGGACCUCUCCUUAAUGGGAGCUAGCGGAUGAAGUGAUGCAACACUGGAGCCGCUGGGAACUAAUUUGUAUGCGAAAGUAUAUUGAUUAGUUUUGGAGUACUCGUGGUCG; details: 37 °C
Ranges used to classify self-splicing fitness (ln): band 1 (below -2), band 2 (-2 to below -0.9), band 3 (-0.9 or more)

Past entries and their recorded results:
>  <PRIMARY SEQUENCE>
AACGAGCAAUAUUACGGUGC

>  <CLASS LABEL>
band 1

$$$$
>  <PRIMARY SEQUENCE>
AUGUAGCAAUAUUACGGGGG

>  <CLASS LABEL>
band 1

$$$$
>  <PRIMARY SEQUENCE>
ACGUAGCAAUAUUACGAUCC

>  <CLASS LABEL>
band 3

$$$$
>  <PRIMARY SEQUENCE>
UGCCAGCAAUAUUACGGCGC

>  <CLASS LABEL>
band 1

$$$$
>  <PRIMARY SEQUENCE>
CCGUAGCAAUAUUACGUACG

>  <CLASS LABEL>
band 2

$$$$

Kindly state the category for this sequence: `ACGAAGCAAUAUUACGCUGG`
band 3

Kindly state the category for this sequence: `CCCAAGCAAUAUUACGAGGU`
band 1

Kindly state the category for this sequence: `CAUUAGCAAUAUUACGUCGG`
band 3

Kindly state the category for this sequence: `UGAGAGCAAUAUUACGAACA`
band 3

Kindly state the category for this sequence: `AUUCAGCAAUAUUACGAAAG`
band 2

Kindly state the category for this sequence: `CACUAGCAAUAUUACGCAGA`
band 1

Kindly state the category for this sequence: `CGUCAGCAAUAUUACGCCCU`
band 3

Kindly state the category for this sequence: `UGAUAGCAAUAUUACGUGCU`
band 2

Kindly state the category for this sequence: `AACUAGCAAUAUUACGGGGU`
band 1

Kindly state the category for this sequence: `GAUCAGCAAUAUUACGACCA`
band 3

====

test: self-splicing fitness, log relative to wild type (ln ratio); higher = more splicing; Tetrahymena group I intron in knt gene, E. coli kanamycin selection, DiMSum; sequences stand for … in CUCUCU…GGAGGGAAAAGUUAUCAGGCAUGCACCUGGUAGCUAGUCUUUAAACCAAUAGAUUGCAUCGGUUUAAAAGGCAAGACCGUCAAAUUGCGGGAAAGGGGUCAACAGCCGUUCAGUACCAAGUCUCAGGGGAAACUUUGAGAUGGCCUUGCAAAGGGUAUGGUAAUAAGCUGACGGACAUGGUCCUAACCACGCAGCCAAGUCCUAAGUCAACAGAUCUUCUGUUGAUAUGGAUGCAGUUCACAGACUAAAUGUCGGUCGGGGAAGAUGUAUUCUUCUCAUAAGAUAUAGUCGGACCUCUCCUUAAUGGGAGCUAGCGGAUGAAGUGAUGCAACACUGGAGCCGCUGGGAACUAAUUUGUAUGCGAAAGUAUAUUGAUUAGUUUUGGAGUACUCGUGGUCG; conditions: 37 °C
Catalogue of self-splicing fitness (ln) values
Format: numeric value only, no unit, no commentary.

>  <PRIMARY SEQUENCE>
CUUUAGCAAUAUUACGUCAU

>  <self-splicing fitness (ln)>
-2.13

$$$$

Quickly give me recorded self-splicing fitness (ln) for `GGCAAGCAAUAUUACGGGUG`
-0.195

Quickly give me recorded self-splicing fitness (ln) for `UACAAGCAAUAUUACGAAAG`
-2.37

Quickly give me recorded self-splicing fitness (ln) for `GCUCAGCAAUAUUACGCCGG`
-0.855

Quickly give me recorded self-splicing fitness (ln) for `CCUUAGCAAUAUUACGUAGG`
-2.83

Quickly give me recorded self-splicing fitness (ln) for `GAUGAGCAAUAUUACGAAUC`
-1.89

Quickly give me recorded self-splicing fitness (ln) for `UGUCAGCAAUAUUACGGGAA`
-0.986

====

Catalogue of self-splicing fitness (ln) values
experiment: self-splicing fitness, log relative to wild type (ln ratio); higher = more splicing; Tetrahymena group I intron in knt gene, E. coli kanamycin selection, DiMSum; sequences stand for … in CUCUCU…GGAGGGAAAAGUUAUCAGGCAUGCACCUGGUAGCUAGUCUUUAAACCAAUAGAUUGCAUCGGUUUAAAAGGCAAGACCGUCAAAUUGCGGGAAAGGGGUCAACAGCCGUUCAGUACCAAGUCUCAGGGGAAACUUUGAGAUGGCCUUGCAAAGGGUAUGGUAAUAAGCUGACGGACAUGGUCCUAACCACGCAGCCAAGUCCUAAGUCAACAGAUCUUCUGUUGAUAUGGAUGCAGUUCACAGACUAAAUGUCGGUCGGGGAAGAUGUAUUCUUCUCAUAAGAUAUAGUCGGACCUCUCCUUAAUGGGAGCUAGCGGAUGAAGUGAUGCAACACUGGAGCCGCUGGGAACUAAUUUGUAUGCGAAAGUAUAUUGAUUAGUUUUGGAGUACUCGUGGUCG; conditions: 37 °C
Format: numeric value only, no unit, no commentary.

>  <PRIMARY SEQUENCE>
CGGCAGCAAUAUUACGGGUA

>  <self-splicing fitness (ln)>
-2.84

$$$$
>  <PRIMARY SEQUENCE>
AUCAAGCAAUAUUACGGAGG

>  <self-splicing fitness (ln)>
-1.36

$$$$
>  <PRIMARY SEQUENCE>
UGGAAGCAAUAUUACGCACG

>  <self-splicing fitness (ln)>
0.34

$$$$
>  <PRIMARY SEQUENCE>
GAGAAGCAAUAUUACGGUAG

>  <self-splicing fitness (ln)>
-2.68

$$$$
>  <PRIMARY SEQUENCE>
CAAGAGCAAUAUUACGUACU

>  <self-splicing fitness (ln)>
-1.92

$$$$

Quickly give me recorded self-splicing fitness (ln) for `UUACAGCAAUAUUACGAAAA`
-0.806

Quickly give me recorded self-splicing fitness (ln) for `GCGGAGCAAUAUUACGAUUG`
-2.23

Quickly give me recorded self-splicing fitness (ln) for `CGUUAGCAAUAUUACGAGCA`
-0.809
